Test system: ASPC-1 tumor-bearing mice
Assay: Biodistribution of radionuclide labeled complexes in ASPC-1 tumor-bearing mice
Assay type: in vivo, BALB/c nude mice
Conditions: Tumor, 4 h
metric: % ID/g (4 h) Tumor (% ID/g)

COc1cccc(OC)c1-c1cc(C(=O)NC2(C(=O)O)C3CC4CC(C3)CC2C4)nn1-c1ccc(NCCOCCOCCNC(=O)CN2CCN(CC(=O)[O-])CCN(CC(=O)[O-])CCN(CC(=O)[O-])CC2)cc1C(C)C.[177Lu+3] (centres unmarked) [^177Lu-I-10] | 17.97
COc1cccc(OC)c1-c1cc(C(=O)NC2(C(=O)O)C3CC4CC(C3)CC2C4)nn1-c1ccc(NCCCN(C)CCCNC(=O)CN2CCN(CC(=O)[O-])CCN(CC(=O)[O-])CCN(CC(=O)[O-])CC2)cc1C(C)C.[177Lu+3] (centres unmarked) [^177Lu-I-2] | 23.11

====

System: ASPC-1 tumor-bearing mice
Assay: Biodistribution of radionuclide labeled complexes in ASPC-1 tumor-bearing mice
Type: in vivo, BALB/c nude mice
Conditions: ^177Lu-labeled complex
metric: AUC (0-72 h) ratio Tumor/Blood

COc1cccc(OC)c1-c1cc(C(=O)NC2(C(=O)O)C3CC4CC(C3)CC2C4)nn1-c1ccc(NC(=O)CCCN(C)CCCN(C)C(=O)CN2CCN(CC(=O)O)CCN(CC(=O)O)CCN(CC(=O)O)CC2)cc1C(C)C (centres unmarked) | 10.0
COc1cccc(OC)c1-c1cc(C(=O)NC2(C(=O)O)C3CC4CC(C3)CC2C4)nn1-c1ccc(C(=O)N(C)CCCN(C)CCCN(C)C(=O)CN2CCN(CC(=O)O)CCN(CC(=O)O)CCN(CC(=O)O)CC2)cc1C(C)C (centres unmarked) [Compound C-2, reference compound] | 9.0

====

Test system: ASPC-1 tumor-bearing mice
Experiment: Biodistribution of radionuclide labeled complexes in ASPC-1 tumor-bearing mice
Type: in vivo, BALB/c nude mice
Settings: Kidney, 24 h
metric: % ID/g (24 h) Kidney (% ID/g)

COc1cccc(OC)c1-c1cc(C(=O)NC2(C(=O)O)C3CC4CC(C3)CC2C4)nn1-c1ccc(C(=O)N(C)CCCN(C)CCCN(C)C(=O)CN2CCN(CC(=O)[O-])CCN(CC(=O)[O-])CCN(CC(=O)[O-])CC2)cc1C(C)C.[177Lu+3] (stereo not drawn) [^177Lu-C-2, reference compound] | 1.36

P. COc1cccc(OC)c1-c1cc(C(=O)NC2(C(=O)O)C3CC4CC(C3)CC2C4)nn1-c1ccc(NC(=O)CCCN(C)CCCN(C)C(=O)CN2CCN(CC(=O)[O-])CCN(CC(=O)[O-])CCN(CC(=O)[O-])CC2)cc1C(C)C.[177Lu+3] (stereo not drawn) [^177Lu-I-5]
Q. COc1cccc(OC)c1-c1cc(C(=O)NC2(C(=O)O)C3CC4CC(C3)CC2C4)nn1-c1ccc(NCCOCCOCCNC(=O)CN2CCN(CC(=O)[O-])CCN(CC(=O)[O-])CCN(CC(=O)[O-])CC2)cc1C(C)C.[177Lu+3] (stereo not drawn) [^177Lu-I-10]
Query: # query: argmin of % ID/g (24 h) Kidney over P and Q Let me know the label of the one you choose.
Result: Q
(Q: 0.31 % ID/g, P: 1.37 % ID/g)
